- Protocol Notes: n-octanol to japanese pharmacopoeia second fluid distribution coefficient, log D at pH 6.8
- Type: physicochemical
This section presents compounds with their documented logD values.
Answer using only a numeral; do not append any unit.

Record Smiles	Test Value
CN1CCc2nc(C(=O)N[C@@H]3C[C@@H](C(=O)N(C)C)CC[C@@H]3NC(=O)C3=NS(=O)(=O)c4cc(Cl)ccc4N3)sc2C1	0.8
CN1CCc2nc(C(=O)N[C@@H]3C[C@@H](C(=O)N(C)C)CC[C@@H]3NC(=O)c3cc(=O)c4cc(Cl)ccc4[nH]3)sc2C1	1.8

According to the records, this compound `CN1CCc2nc(C(=O)N[C@@H]3C[C@@H](C(=O)N(C)C)CC[C@@H]3NC(=O)c3cc4ccc(Cl)cc4cn3)sc2C1` displays logD of 2.3

According to the records, this compound `CN1CCc2nc(C(=O)N[C@@H]3C[C@@H](C(=O)N(C)C)CC[C@@H]3NC(=O)c3nc(=O)c4cc(Cl)ccc4[nH]3)sc2C1` displays logD of 1.6

Attribution: ChEMBL document CHEMBL1153111
